Reported growth by item:
# Test system: BT-549 breast
# Assay Protocol: NCI-60 one-dose screen, 48 h (100 = growth as untreated, 0 = no growth, -100 = all killed)
# Experimental Context: 10 µM unless noted
Compounds without any hit were thinned out: in the full panel of roughly 83,000, 20% have a hit.
All answers are understood in %, so give the number only.

Previously resolved entries follow.
| Compound | Study System | growth [%] |
| --- | --- | --- |
| C=CC(=O)NCc1ccc(Nc2nccc(-c3ccc(N4CCCC4)c(C#N)c3)n2)cc1 | BT-549 breast | -10.3 |
| CN[C@]12CC3(C=CC(=O)C=C3)O[C@@]1(Cc1ccc(OC)cc1)N(C)C(=O)N2 | BT-549 breast | 41.5 |
| CC(C)N1CN2C(=S)NC3C2N(C1)C(=S)N3C (stereo not drawn) | BT-549 breast | 124 |
| Cc1cc2c(O)c(-c3cc(Cl)ccc3Cl)c3sc(=O)oc3c2cc1C | BT-549 breast | 81.7 |
| C=CCn1c(SCC(=O)Nc2ccc(C(=O)/C=C/c3ccc(Cl)cc3)cc2)nnc1-c1cc(-c2ccc(S(N)(=O)=O)cc2)nc2ccccc12 | BT-549 breast | 80.5 |
| COc1ccc(/C=C2\COc3ccc(O)cc3C2=O)c(OC)c1OC | BT-549 breast | 72.3 |

Dear colleague, I am looking for the recorded growth of the following compound: CCN(CC)CCCN1C(=O)c2c(c(C)c3c(oc4cc(O)ccc43)c2C)C1=O 94.8

Dear colleague, I am looking for the recorded growth of the following compound: COc1cccc(/C=C/C(=O)c2cc3c(N)c(C(=O)Nc4ccccc4)sc3nc2C)c1 30.3
